- Tested system: FGFR2 (Homo sapiens)
- Construct: made in house; host or cells: E. coli derived from BL21, infected with T7 phage
- Sequence (P21802 22-821): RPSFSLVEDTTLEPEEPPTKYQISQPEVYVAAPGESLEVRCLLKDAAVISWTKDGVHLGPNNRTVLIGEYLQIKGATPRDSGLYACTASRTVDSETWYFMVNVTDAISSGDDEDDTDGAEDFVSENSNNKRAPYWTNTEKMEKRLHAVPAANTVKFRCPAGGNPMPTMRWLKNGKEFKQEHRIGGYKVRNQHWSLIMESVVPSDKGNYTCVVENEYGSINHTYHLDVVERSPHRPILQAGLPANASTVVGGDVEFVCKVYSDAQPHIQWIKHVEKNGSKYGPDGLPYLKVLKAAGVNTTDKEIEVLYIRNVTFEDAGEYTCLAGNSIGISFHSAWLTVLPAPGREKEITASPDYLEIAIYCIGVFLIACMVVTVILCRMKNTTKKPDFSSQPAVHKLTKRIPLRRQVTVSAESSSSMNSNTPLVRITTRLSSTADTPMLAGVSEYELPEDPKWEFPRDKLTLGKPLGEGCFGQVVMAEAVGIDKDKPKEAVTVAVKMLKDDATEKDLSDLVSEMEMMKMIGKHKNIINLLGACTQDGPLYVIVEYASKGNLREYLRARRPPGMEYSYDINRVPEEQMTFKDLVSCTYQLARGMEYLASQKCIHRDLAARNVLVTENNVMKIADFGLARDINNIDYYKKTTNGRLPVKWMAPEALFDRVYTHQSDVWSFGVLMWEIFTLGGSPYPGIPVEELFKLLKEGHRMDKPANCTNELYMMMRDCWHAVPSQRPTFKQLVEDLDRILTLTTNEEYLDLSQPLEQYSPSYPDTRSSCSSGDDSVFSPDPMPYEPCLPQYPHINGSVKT
- Assay name: Kinase binding assay (kinase-tagged T7 phage, affinity beads, qPCR readout), FGFR2
- Assay context: FGFR binding data
- Protocol: Kinase-tagged T7 phage strains were prepared in an E. coli host derived from the BL21 strain. E. coli were grown to log-phase and infected with T7 phage and incubated with shaking at 32° C. until lysis. The lysates were centrifuged and filtered to remove cell debris. […] Test compounds were prepared as 111× stocks in 100% DMSO. Kds were determined using an 11-point 3-fold compound dilution series with three DMSO control points. […] The kinase concentration in the eluates was measured by qPCR. […]
Property measured: Kd

Query: Would you kindly share the measured Kd for C=CC(=O)Nc1ccc2c(ccn2-c2nc(Nc3cn(C)nc3OCC)ncc2Cl)c1 [Example 14] ?
Reply: > 1000 nM

Query: Would you kindly share the measured Kd for C=CC(=O)Nc1ccc2c(ccn2-c2nc(Nc3cccc(OCCN4CCOCC4)c3)ncc2Cl)c1 [Example 6] ?
Reply: 250 to 1000 nM

Query: Would you kindly share the measured Kd for C=CC(=O)Nc1ccc2c(ccn2-c2nc(Nc3cccc(OCCN4CCOCC4)c3)ncc2C)c1C [Example 5] ?
Reply: 100 to 250 nM

Query: Would you kindly share the measured Kd for C=CC(=O)Nc1ccc2c(c1)c(C)cn2-c1nc(Nc2cnn(C[C@@H](C)O)c2)ncc1F [Example 185] ?
Reply: 0.1 to 100 nM

Query: Would you kindly share the measured Kd for C=CC(=O)Nc1ccc2c(c1)c(C)cn2-c1nc(Nc2cn(C)nc2C#N)ncc1Cl [Example 70] ?
Reply: 0.1 to 100 nM

---

# Kd values compiled below
- Tested system: FGFR3 (V555M) (Homo sapiens, UniProt P22607, V555M)
- Construct: made in house; host or cells: E. coli derived from BL21, infected with T7 phage
- Sequence (P22607 23-806 V555M): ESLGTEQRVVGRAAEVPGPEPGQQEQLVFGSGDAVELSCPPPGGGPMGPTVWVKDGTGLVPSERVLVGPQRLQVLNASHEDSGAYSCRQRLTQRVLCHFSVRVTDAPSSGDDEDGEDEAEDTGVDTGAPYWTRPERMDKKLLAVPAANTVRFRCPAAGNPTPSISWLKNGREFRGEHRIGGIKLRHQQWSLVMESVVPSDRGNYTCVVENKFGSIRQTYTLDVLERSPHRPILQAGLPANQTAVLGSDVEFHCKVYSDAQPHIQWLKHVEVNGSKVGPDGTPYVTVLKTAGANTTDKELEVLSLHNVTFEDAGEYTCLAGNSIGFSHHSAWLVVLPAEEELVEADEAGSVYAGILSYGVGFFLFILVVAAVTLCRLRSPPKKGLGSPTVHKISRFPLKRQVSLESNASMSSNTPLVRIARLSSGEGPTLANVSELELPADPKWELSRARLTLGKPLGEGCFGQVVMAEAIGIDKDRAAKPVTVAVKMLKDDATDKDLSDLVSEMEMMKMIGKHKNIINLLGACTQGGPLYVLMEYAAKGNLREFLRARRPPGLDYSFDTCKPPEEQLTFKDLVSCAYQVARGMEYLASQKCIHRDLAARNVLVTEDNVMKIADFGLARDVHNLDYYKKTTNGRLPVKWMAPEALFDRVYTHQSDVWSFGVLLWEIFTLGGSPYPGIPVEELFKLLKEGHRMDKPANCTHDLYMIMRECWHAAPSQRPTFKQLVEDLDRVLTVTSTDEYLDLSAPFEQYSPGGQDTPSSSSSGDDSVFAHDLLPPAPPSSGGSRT
- Assay name: Kinase binding assay (kinase-tagged T7 phage, affinity beads, qPCR readout), FGFR3 (V555M)
- Assay context: FGFR binding data

// known answers, use as guide
C=CC(=O)Nc1ccc2c(c1)c(C)cn2-c1nc(Nc2cn(CCO)nc2C)ncc1F	0.1 to 100 nM
C=CC(=O)Nc1ccc2c(c1)cc(C)n2-c1nc(Nc2cnn(C)c2)ncc1F	0.1 to 100 nM
Cc1nn(C)cc1Nc1ncc(Cl)c(-n2cc(C)c3cc(NC(=O)/C=C/CN(C)C)cnc32)n1	0.1 to 100 nM
Cc1cn(-c2nc(Nc3cnn(C[C@H](C)O)c3)ncc2F)c2ncc(NC(=O)/C=C/CN3CCOCC3)cc12	250 to 1000 nM
C=CC(=O)Nc1ccc2c(c1)c(C)cn2-c1nc(Nc2cn(C(F)F)nc2C)ncc1F	0.1 to 100 nM

Now look at this entry.
Query: Would you kindly share the measured Kd for `C=CC(=O)Nc1ccc2c(-c3ccnc(Nc4cc(C)[nH]n4)n3)cn(C)c2c1` ?
Reply: > 1000 nM

---

- Tested system: FGFR1 (Homo sapiens)
- Construct: made in house; host or cells: E. coli derived from BL21, infected with T7 phage
- Sequence (P11362 22-822): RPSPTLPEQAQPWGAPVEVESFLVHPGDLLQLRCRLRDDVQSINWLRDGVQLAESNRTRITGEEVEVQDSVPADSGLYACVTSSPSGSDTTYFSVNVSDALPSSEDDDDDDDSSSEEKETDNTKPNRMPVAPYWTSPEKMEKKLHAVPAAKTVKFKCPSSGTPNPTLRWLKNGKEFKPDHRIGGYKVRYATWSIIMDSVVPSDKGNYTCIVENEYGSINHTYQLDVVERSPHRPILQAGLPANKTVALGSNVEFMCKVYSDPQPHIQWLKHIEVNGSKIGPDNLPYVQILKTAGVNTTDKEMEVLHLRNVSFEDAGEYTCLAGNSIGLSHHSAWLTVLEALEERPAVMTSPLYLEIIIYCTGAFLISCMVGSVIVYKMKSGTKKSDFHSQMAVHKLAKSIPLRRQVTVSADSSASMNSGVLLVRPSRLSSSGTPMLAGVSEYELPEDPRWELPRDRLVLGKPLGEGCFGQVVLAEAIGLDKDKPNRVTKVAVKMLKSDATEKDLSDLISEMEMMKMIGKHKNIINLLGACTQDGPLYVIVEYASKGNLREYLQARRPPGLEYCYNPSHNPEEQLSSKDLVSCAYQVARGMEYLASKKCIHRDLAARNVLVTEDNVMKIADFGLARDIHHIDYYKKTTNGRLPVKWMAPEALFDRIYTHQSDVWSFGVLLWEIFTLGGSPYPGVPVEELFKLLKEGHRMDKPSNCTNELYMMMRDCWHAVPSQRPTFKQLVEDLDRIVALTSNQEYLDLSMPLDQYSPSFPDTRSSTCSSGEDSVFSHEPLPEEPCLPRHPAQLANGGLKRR
- Assay name: Kinase binding assay (kinase-tagged T7 phage, affinity beads, qPCR readout), FGFR1
- Assay context: FGFR binding data
Property measured: Kd

C=CC(=O)Nc1ccc2c(c1)c(CC)cn2-c1nc(Nc2cnn(C)c2)ncc1C	0.1 to 100 nM
C=CC(=O)Nc1ccc2c(c1)c(C)cn2-c1nc(Nc2cnn(C3CCN(C4COC4)CC3)c2)ncc1Cl	0.1 to 100 nM
Cc1nn(C)cc1Nc1ncc(F)c(-n2cc(C)c3cc(NC(=O)/C=C/CN(C)C)cnc32)n1	250 to 1000 nM

Query: Would you kindly share the measured Kd for `C=CC(=O)Nc1ccc2c(c1)c(C)cn2-c1nc(Nc2cnn(CCO)c2C)ncc1F` ?
Reply: 0.1 to 100 nM

Query: Would you kindly share the measured Kd for `C=CC(=O)Nc1ccc2c(c1)c(C)cn2-c1nc(Nc2ccc3ncnn3c2)ncc1Cl` ?
Reply: 100 to 250 nM

Query: Would you kindly share the measured Kd for `C#CC(=O)Nc1ccc2c(-c3ccnc(Nc4cnn(CCO)c4)n3)cn(C)c2c1` ?
Reply: 0.1 to 100 nM

Query: Would you kindly share the measured Kd for `C=CC(=O)Nc1ccc2c(c1)c(C)cn2-c1nc(Nc2cnn(CCO)c2)ncc1C` ?
Reply: 0.1 to 100 nM

Query: Would you kindly share the measured Kd for `C=CC(=O)Nc1ccc2c(ccn2-c2nc(Nc3cnn(C)c3)ncc2Cl)c1` ?
Reply: 0.1 to 100 nM

Query: Would you kindly share the measured Kd for `C=CS(=O)(=O)Nc1ccc2c(c1)c(C)cn2-c1nc(Nc2ccnn2C)ncc1C` ?
Reply: 0.1 to 100 nM

Data provenance is patent US20240190849A1.
